# measurement_target: Lethal(3)malignant brain tumor-like protein 3 (Homo sapiens)
# measurement_notes: Antagonist activity at His-tagged L3MBTL3 (unknown origin) assessed as inhibition of L3MBTL3/biotinylated H4K20Me2 peptide interaction after 30 mins by AlphaScreen assay
pIC50: −log10 of the molar value.
measurement_kind: pIC50

1. O=S(=O)(c1cccc(Br)c1)N1CCC(N2CCCC2)CC1	5.43
2. O=C(c1cccc(Br)c1)N1CC2CCC(C1)C2N1CCCC1 (configuration not stated)	5.44
3. CNC(=O)c1cccc(C(=O)N2CCC(N3CCCC3)CC2)c1	5.19
4. O=C(c1cccc(Br)c1)N1CCC(N2CC=CC2)CC1	5.06
5. O=C(c1cccc(Br)c1)N1CCCC(N2CCCC2)CC1 (configuration not stated)	5.17
6. Brc1cccc(CN2CCC(N3CCCC3)CC2)c1	4.88
7. O=C(c1cccc(Br)c1)N1CCC(N2CCC2)CC1	4.62
8. O=C(O)c1cccc(C(=O)N2CCC(N3CCCC3)CC2)c1	5.16

###

# measurement_target: Lethal(3)malignant brain tumor-like protein 3 (Homo sapiens, UniProt Q96JM7)
# Sequence (Q96JM7 whole entry): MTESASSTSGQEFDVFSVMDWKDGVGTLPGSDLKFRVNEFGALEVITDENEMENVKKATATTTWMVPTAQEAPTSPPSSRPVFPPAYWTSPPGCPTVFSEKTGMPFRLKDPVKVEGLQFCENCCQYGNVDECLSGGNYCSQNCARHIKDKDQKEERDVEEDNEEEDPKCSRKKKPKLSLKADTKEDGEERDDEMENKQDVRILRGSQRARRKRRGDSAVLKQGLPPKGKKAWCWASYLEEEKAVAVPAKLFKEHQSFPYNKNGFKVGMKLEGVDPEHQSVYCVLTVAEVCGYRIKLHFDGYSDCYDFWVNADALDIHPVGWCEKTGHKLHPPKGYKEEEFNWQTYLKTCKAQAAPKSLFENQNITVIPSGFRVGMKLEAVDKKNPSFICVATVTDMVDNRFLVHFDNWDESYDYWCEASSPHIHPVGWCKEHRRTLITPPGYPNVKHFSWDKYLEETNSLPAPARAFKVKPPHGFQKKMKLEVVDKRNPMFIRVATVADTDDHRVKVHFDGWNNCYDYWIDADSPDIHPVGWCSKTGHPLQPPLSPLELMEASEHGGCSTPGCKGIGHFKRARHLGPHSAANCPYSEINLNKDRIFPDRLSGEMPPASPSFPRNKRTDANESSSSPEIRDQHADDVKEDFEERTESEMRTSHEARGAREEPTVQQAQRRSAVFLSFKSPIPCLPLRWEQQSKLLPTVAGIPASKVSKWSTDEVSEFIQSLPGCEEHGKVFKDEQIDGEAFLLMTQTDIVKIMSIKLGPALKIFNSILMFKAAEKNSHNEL
# measurement_notes: Antagonist activity at His-tagged L3MBTL3 (unknown origin) assessed as inhibition of L3MBTL3/biotinylated H4K20Me2 peptide interaction after 30 mins by AlphaScreen assay
The following compounds are listed with their measured IC50 values.
measurement_kind: IC50 (µM)

1. O=C(c1ccccc1)N1CCC(N2CCCC2)CC1	6.2
2. c1ccc(C(c2ccccc2)N2CCC(N3CCCC3)CC2)cc1	2.4
3. O=C(c1cccc(Br)c1)N1CCC(N2CCCC2)CC1	3.2
4. CN1CCCC1C1CCN(C(=O)c2cccc(Br)c2)CC1 (stereo unspecified)	21
5. O=C(c1ccc(Br)cc1)N1CCC(N2CCCC2)CC1	4.1
6. O=C(c1cncc(Br)c1)N1CCC(N2CCCC2)CC1	4.8
7. O=C(c1ccccc1Br)N1CCC(N2CCCC2)CC1	6.8
8. CC(c1cccc(Br)c1)N1CCC(N2CCCC2)CC1 (racemic)	16

###

# measurement_target: Lethal(3)malignant brain tumor-like protein 3 (Homo sapiens)
# measurement_notes: Antagonist activity at His-tagged L3MBTL3 (unknown origin) assessed as inhibition of L3MBTL3/biotinylated H4K20Me2 peptide interaction at 30 uM after 30 mins by AlphaScreen assay
Please use label 1 whenever inhibition is not below 20%, and label 0 whenever it is.

1. O=C(c1cccc(Br)c1)N1CCC(C2CCCN2)CC1 (stereo not drawn)	label 1
2. CC1CCCN1C1CCN(C(=O)c2cccc(Br)c2)CC1 (stereo not drawn)	label 1
3. C[N+]1(C2CCN(C(=O)c3cccc(Br)c3)CC2)CCCC1	label 0
4. O=C(c1cccc(Br)c1)N1CCN(C2CCCC2)CC1	label 0
5. O=C(c1cccc(Br)c1)N1CCC(N2CCCCC2)CC1	label 1
6. O=C(c1cccc(Br)c1)N1CCC(N2CCCC2)C1 (stereo not drawn)	label 1
7. CN(C)C1CCN(C(=O)c2cccc(Br)c2)CC1	label 0
8. CNC1CCN(C(=O)c2cccc(Br)c2)CC1	label 0

###

# measurement_target: MBT domain-containing protein 1 (Homo sapiens)
# Sequence (Q05BQ5 whole entry, the tested form may be a part): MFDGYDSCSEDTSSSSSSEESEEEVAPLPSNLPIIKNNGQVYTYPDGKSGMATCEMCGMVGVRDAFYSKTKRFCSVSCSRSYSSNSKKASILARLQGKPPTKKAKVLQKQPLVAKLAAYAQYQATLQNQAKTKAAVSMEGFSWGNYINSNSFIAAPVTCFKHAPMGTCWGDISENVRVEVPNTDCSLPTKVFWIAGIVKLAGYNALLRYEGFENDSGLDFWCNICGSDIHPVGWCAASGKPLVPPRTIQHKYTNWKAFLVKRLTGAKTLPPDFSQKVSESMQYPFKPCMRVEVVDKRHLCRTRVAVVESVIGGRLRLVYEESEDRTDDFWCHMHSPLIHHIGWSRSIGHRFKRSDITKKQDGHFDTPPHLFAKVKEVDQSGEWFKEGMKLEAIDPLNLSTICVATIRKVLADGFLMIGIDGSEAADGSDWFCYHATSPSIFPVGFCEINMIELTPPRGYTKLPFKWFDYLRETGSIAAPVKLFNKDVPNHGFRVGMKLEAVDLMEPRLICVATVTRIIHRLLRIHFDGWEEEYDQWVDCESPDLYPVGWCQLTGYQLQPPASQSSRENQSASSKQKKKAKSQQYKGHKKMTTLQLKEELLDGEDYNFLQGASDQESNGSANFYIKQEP
# measurement_notes: Antagonist activity at MBTD1 (unknown origin) assessed as inhibition of MBTD1/biotinylated H4K20Me1 peptide interaction after 30 mins by AlphaScreen assay
pIC50: −log10 of the molar value.
measurement_kind: pIC50

1. O=C(c1cccc(Br)c1)N1CCCC(N2CCCC2)CC1 (centres undefined)	4.82
2. CC(c1cccc(Br)c1)N1CCC(N2CCCC2)CC1 (racemic)	5.05
3. O=C(c1ccc(Br)cc1)N1CCC(N2CCCC2)CC1	< 4.52
4. O=C(c1cncc(Br)c1)N1CCC(N2CCCC2)CC1	< 4.52
5. C[N+]1(C2CCN(C(=O)c3cccc(Br)c3)CC2)CCCC1	< 4.52
6. CN(C)C1CCN(C(=O)c2cccc(Br)c2)CC1	< 4.52
7. c1ccc(C(c2ccccc2)N2CCC(N3CCCC3)CC2)cc1	< 4.52
8. CC1CCCN1C1CCN(C(=O)c2cccc(Br)c2)CC1 (centres undefined)	< 4.52
9. O=C(O)c1cccc(C(=O)N2CCC(N3CCCC3)CC2)c1	< 4.52
10. O=S(=O)(c1cccc(Br)c1)N1CCC(N2CCCC2)CC1	4.66
11. Brc1cccc(CN2CCC(N3CCCC3)CC2)c1	4.73
12. CN1CCCC1C1CCN(C(=O)c2cccc(Br)c2)CC1 (centres undefined)	< 4.52
13. O=C(c1cccc(Br)c1)N1CCC(N2CCC2)CC1	< 4.52
14. O=C(c1cccc(Br)c1)N1CCC(N2CCCC2)CC1	< 4.52
15. O=C(c1cccc(Br)c1)N1CCC(C2CCCN2)CC1 (centres undefined)	5.04
16. CNC(=O)c1cccc(C(=O)N2CCC(N3CCCC3)CC2)c1	< 4.52
17. O=C(c1cccc(Br)c1)N1CC2CCC(C1)C2N1CCCC1 (centres undefined)	< 4.52
18. CNC1CCN(C(=O)c2cccc(Br)c2)CC1	< 4.52
19. O=C(c1ccccc1)N1CCC(N2CCCC2)CC1	< 4.52
20. O=C(c1cccc(Br)c1)N1CCC(N2CCCC2)C1 (centres undefined)	< 4.52
21. O=C(c1cccc(Br)c1)N1CCN(C2CCCC2)CC1	< 4.52
22. O=C(c1ccccc1Br)N1CCC(N2CCCC2)CC1	< 4.52
23. O=C(c1cccc(Br)c1)N1CCC(N2CC=CC2)CC1	< 4.52
24. O=C(c1cccc(Br)c1)N1CCC(N2CCCCC2)CC1	4.53

These measurements were taken from ChEMBL document CHEMBL3217594.
